- System under test: biotinylated CD59 (Homo sapiens, UniProt P13987)
- Construct: Recombinant soluble human CD59 with an additional C-terminal cysteine residue
- Sequence (P13987 26-102 limits assumed): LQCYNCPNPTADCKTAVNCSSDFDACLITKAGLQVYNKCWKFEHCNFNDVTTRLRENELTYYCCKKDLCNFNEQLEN
- Protocol: mRNA-display cyclic peptide screen against CD59-biotin, NGS abundance after 6th selection round
- Condition parameters: raw NGS counts of peptide sequence, sequencing sample Seq II, sheet R6 (6th selection round)
Counts Seq II overview
Respond using a number only.

Some solved cases for reference:
{"columns": ["Sequence entry", "Reported measurement"],
 "data": [
  ["SWTWGNRNSVRG", 28],
  ["CFSHRPGPSI", 57],
  ["FVRGDLYSVFG", 11],
  ["GPRNECHSQFQN", 37],
  ["TYGSRFCPQYCAAAAAAARTGGG", 16],
  ["DPWCTPFSNVT", 90]
]}

[Q] Retrieve Counts Seq II measured for HCWVRGSRNYA and print it.
[A] 12

[Q] Retrieve Counts Seq II measured for CLRRSYEATSI and print it.
[A] 9

[Q] Retrieve Counts Seq II measured for IARGDRNHQFY and print it.
[A] 108
